Consider the following sequences; for each one, report its protein stability index.
experiment: protein stability index of a GFP-peptide fusion (yeast GPS) (PSI 1-4); higher = more stable; sorted into four equal gates, so the index is relative within each strain; conditions: ubr1∆
Give bare numbers.

Worked cases, protein stability index given:
{"residueString": "LIQSYSLLDKPDEAIEK [FAS1]", "protein stability index": 2.79}
{"residueString": "QIPTVSSPLGFEETKLS [SIR4]", "protein stability index": 2.9}
{"residueString": "CWPKDSRMRLIRQDVNL [PRP8]", "protein stability index": 2.76}

Now look at this entry.
(Q) # lookup: protein stability index of NKLSSILQNEHDYWNKI [SRB4]
(A) 2.47
